study.system: UniProt:Q9UNQ0
Sequence (Q9UNQ0 whole entry): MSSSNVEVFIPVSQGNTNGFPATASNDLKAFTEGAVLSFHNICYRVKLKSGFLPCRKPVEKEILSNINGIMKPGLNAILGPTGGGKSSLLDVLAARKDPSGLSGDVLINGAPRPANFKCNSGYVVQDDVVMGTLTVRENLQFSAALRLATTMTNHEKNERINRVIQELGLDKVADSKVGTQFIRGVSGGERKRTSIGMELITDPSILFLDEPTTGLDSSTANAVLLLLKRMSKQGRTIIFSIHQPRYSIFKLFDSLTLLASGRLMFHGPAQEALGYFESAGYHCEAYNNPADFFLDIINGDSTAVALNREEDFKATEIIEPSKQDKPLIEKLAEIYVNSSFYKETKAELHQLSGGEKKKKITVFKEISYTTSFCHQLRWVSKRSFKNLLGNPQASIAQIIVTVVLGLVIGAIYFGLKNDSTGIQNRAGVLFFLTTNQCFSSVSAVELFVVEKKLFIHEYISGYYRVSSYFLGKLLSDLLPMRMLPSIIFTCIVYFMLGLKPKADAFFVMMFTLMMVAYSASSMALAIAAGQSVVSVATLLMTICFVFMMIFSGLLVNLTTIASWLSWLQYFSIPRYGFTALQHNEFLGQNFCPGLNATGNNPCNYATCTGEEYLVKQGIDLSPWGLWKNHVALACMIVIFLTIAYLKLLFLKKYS
assay.remarks: [3H]-estrone-3-sulfate (E1S) uptake into ABCG2-expressing membrane vesicles from HEK293 cells
pIC50: −log10 of the molar value.

- compound: "CCCCCCCCCCCCOCCOCCOCCOCCO [Polyoxyl 4 lauryl ether, Lauryl polyethylene glycol ether]"
  pIC50: 4.11

----------
assay.remarks: ratio of topotecan concentration in blood to plasma
experimental.context: mouse, blood and plasma; mice; read-out: RB, ratio of topotecan concentration in blood to plasma
endpoint: blood plasma ratio

- structure: "CC[C@@]1(O)C(=O)OCc2c1cc1n(c2=O)Cc2cc3c(CN(C)C)c(O)ccc3nc2-1"
  value.reported: 1.2
